- Assayed System: T1, recombinant human CTLA4 protein with human IgG1 Fc tag at the C-terminus (Acro biosystems, Cat#CT4-H5255) (human, UniProt P16410 37-162)
- T1 construct: bought protein; also called human CTLA4-Fc; CTLA4-Fc; not shown: human IgG1 Fc tag at the C-terminus
- T1 sequence (looked up): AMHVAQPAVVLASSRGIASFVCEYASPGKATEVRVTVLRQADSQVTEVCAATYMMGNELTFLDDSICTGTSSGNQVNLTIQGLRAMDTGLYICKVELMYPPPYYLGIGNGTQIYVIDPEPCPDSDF
- Procedure Text: capture ELISA: antibody captured on anti-mouse IgG F(ab')2 coated plate, biotin human CTLA4-Fc 26 ng/ml, streptavidin-HRP, OD(450-630)
Reported Property: EC50 (nM)
Numeric answer only, unit nM assumed.

Binder	Value Units	EC50
mouse anti-CTLA4 monoclonal antibody D1B8 (antibody, V domains shown, mouse mAb purified from hybridoma supernatant) VH: QIQLQQSGPELVKPGASVKISCKASGYTFTDYYINWVKQRPGQGLEWIGWIYPGNNNTRYNEKFKGKATLTIDTSSSTAFMHLSSLTSEDSAVYFCARYYFDYWGQGTTLTVSS VL: DIQMTQSPSSLSASLGERISLTCRASQEITGYLSWLQQKPDGTIKRLIYAASTLDSGVPQRFSGSRSGSDYSLTISSLESEDFADYYCLQYASYPRTFGGGTKLEIK	nM	1.11

Turning to the following binder.
What value of EC50 has been reported for the following binder? mouse anti-CTLA4 monoclonal antibody C1G4 (antibody, V domains shown, mouse mAb purified from hybridoma supernatant) VH: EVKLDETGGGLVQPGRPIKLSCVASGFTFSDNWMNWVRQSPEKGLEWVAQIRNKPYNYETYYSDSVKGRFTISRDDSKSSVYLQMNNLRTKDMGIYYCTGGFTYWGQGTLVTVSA VL: DIQMTQSPPSLSASVGETVTITCGASENIYGGLNWYQRKQGKSPQLLIYGATNLADGMSSRFSGSGSGRQYSLKISRLHPDDVATYYCQNVLNTPYTFGGGTKLEIK
0.134
